ASSAY_TEXT: Single dose oral capsule pharmacokinetics of BHV-3500 in dogs (plasma LC-MS/MS)
Format: in vivo, beagle dogs
EXPERIMENTAL_CONTEXT: female, beagle, dog, plasma, po, 20 mg, Group 3, oral capsule, 20 mg BHV-3500 in 25 mg DDM; 4 h post-dose; individual dogs; read-out: BHV-3500 Concentration in Dog Plasma
OBSERVATION_TYPE: concentration at 4 h

Recorded concentration at 4 h (compound Cc1cc(C[C@@H](NC(=O)N2CCC(c3cc4ccccc4[nH]c3=O)CC2)C(=O)N2CCN(C3CCN(C)CC3)CC2)cc2cn[nH]c12 ): 2.18 ng/mL

---

ASSAY_TEXT: Single dose oral capsule pharmacokinetics of BHV-3500 in dogs (plasma LC-MS/MS)
Assay type: in vivo, beagle dogs
EXPERIMENTAL_CONTEXT: female, beagle, dog, plasma, po, 50 mg, Group 6, oral capsule, 50 mg BHV-3500 in 25 mg DDM; average; read-out: Cmax
OBSERVATION_TYPE: Cmax (ng/mL)
Form entry: value (ng/mL) — number only.

Recorded Cmax (molecule Cc1cc(C[C@@H](NC(=O)N2CCC(c3cc4ccccc4[nH]c3=O)CC2)C(=O)N2CCN(C3CCN(C)CC3)CC2)cc2cn[nH]c12 [BHV-3500] ): 6.59

---

ASSAY_TEXT: Single dose oral capsule pharmacokinetics of BHV-3500 in dogs (plasma LC-MS/MS)
Assay type: in vivo, beagle dogs
EXPERIMENTAL_CONTEXT: female, beagle, dog, plasma, po, 50 mg, Group 6, oral capsule, 50 mg BHV-3500 in 25 mg DDM; average; read-out: AUC0-4 hr
OBSERVATION_TYPE: AUC(0-t) (ng·h/mL)
Form entry: value (ng·h/mL) — number only.

Recorded AUC(0-t) (compound Cc1cc(C[C@@H](NC(=O)N2CCC(c3cc4ccccc4[nH]c3=O)CC2)C(=O)N2CCN(C3CCN(C)CC3)CC2)cc2cn[nH]c12 [BHV-3500] ): 17.3

---

ASSAY_TEXT: Single dose oral capsule pharmacokinetics of BHV-3500 in dogs (plasma LC-MS/MS)
Type: in vivo, beagle dogs
EXPERIMENTAL_CONTEXT: female, beagle, dog, plasma, po, 20 mg, Group 2, oral capsule, 20 mg BHV-3500 in 900 mg vehicle of Formulation 2 (SEDDS excipients); 4 h post-dose; average; read-out: BHV-3500 Concentration in Dog Plasma
OBSERVATION_TYPE: concentration at 4 h (ng/mL)
Form entry: value (ng/mL) — number only.

Recorded concentration at 4 h (compound Cc1cc(C[C@@H](NC(=O)N2CCC(c3cc4ccccc4[nH]c3=O)CC2)C(=O)N2CCN(C3CCN(C)CC3)CC2)cc2cn[nH]c12 [BHV-3500] ): 3.09

---

ASSAY_TEXT: Single dose oral capsule pharmacokinetics of BHV-3500 in dogs (plasma LC-MS/MS)
Type: in vivo, beagle dogs
EXPERIMENTAL_CONTEXT: female, beagle, dog, plasma, po, 50 mg, Group 6, oral capsule, 50 mg BHV-3500 in 25 mg DDM; 4 h post-dose; individual dogs; read-out: BHV-3500 Concentration in Dog Plasma
OBSERVATION_TYPE: concentration at 4 h

Recorded concentration at 4 h (compound Cc1cc(C[C@@H](NC(=O)N2CCC(c3cc4ccccc4[nH]c3=O)CC2)C(=O)N2CCN(C3CCN(C)CC3)CC2)cc2cn[nH]c12 ): 12 ng/mL

---

ASSAY_TEXT: Single dose oral capsule pharmacokinetics of BHV-3500 in dogs (plasma LC-MS/MS)
Type: in vivo, beagle dogs
EXPERIMENTAL_CONTEXT: female, beagle, dog, plasma; Group 2, oral capsule, 20 mg BHV-3500 in 900 mg vehicle of Formulation 2 (SEDDS excipients); 1 h post-dose; individual dogs; read-out: BHV-3500 Concentration in Dog Plasma
OBSERVATION_TYPE: concentration at 1 h

Recorded concentration at 1 h (compound Cc1cc(C[C@@H](NC(=O)N2CCC(c3cc4ccccc4[nH]c3=O)CC2)C(=O)N2CCN(C3CCN(C)CC3)CC2)cc2cn[nH]c12 ): 2.57 ng/mL

---

ASSAY_TEXT: Single dose oral capsule pharmacokinetics of BHV-3500 in dogs (plasma LC-MS/MS)
Format: in vivo, beagle dogs
EXPERIMENTAL_CONTEXT: female, beagle, dog, plasma, po, 20 mg, Group 3, oral capsule, 20 mg BHV-3500 in 25 mg DDM; 0.5 h post-dose; average
OBSERVATION_TYPE: concentration at 0.5 h (ng/mL)
Form entry: value (ng/mL) — number only.

Recorded concentration at 0.5 h (molecule Cc1cc(C[C@@H](NC(=O)N2CCC(c3cc4ccccc4[nH]c3=O)CC2)C(=O)N2CCN(C3CCN(C)CC3)CC2)cc2cn[nH]c12 ): 14

---

ASSAY_TEXT: Single dose oral capsule pharmacokinetics of BHV-3500 in dogs (plasma LC-MS/MS)
Format: in vivo, beagle dogs
EXPERIMENTAL_CONTEXT: female, beagle, dog, plasma, po, 50 mg, Group 6, oral capsule, 50 mg BHV-3500 in 25 mg DDM; 2 h post-dose; average; read-out: BHV-3500 Concentration in Dog Plasma
OBSERVATION_TYPE: concentration at 2 h (ng/mL)
Form entry: value (ng/mL) — number only.

Recorded concentration at 2 h (compound Cc1cc(C[C@@H](NC(=O)N2CCC(c3cc4ccccc4[nH]c3=O)CC2)C(=O)N2CCN(C3CCN(C)CC3)CC2)cc2cn[nH]c12 ): 6.05

---

ASSAY_TEXT: Single dose oral capsule pharmacokinetics of BHV-3500 in dogs (plasma LC-MS/MS)
Type: in vivo, beagle dogs
EXPERIMENTAL_CONTEXT: female, beagle, dog, plasma, po, 50 mg, Group 4, oral capsule, 50 mg BHV-3500, no vehicle; individual dogs; read-out: Cmax
OBSERVATION_TYPE: Cmax (ng/mL)
Form entry: value (ng/mL) — number only.

Recorded Cmax (compound Cc1cc(C[C@@H](NC(=O)N2CCC(c3cc4ccccc4[nH]c3=O)CC2)C(=O)N2CCN(C3CCN(C)CC3)CC2)cc2cn[nH]c12 ): 7.57

---

ASSAY_TEXT: Single dose oral capsule pharmacokinetics of BHV-3500 in dogs (plasma LC-MS/MS)
Format: in vivo, beagle dogs
EXPERIMENTAL_CONTEXT: female, beagle, dog, plasma, oral, 50 mg, Group 5, 50 mg with Vehicle 6; 2 hours post-dose; read-out: mean plasma exposure
OBSERVATION_TYPE: concentration at 2 h (nM)
Form entry: value (nM) — number only.

Recorded concentration at 2 h (compound Cc1cc(C[C@@H](NC(=O)N2CCC(c3cc4ccccc4[nH]c3=O)CC2)C(=O)N2CCN(C3CCN(C)CC3)CC2)cc2cn[nH]c12 ): 63.3

---

ASSAY_TEXT: Single dose oral capsule pharmacokinetics of BHV-3500 in dogs (plasma LC-MS/MS)
Type: in vivo, beagle dogs
EXPERIMENTAL_CONTEXT: female, beagle, dog, plasma, po, 50 mg, Group 5, oral capsule, 50 mg BHV-3500 in 900 mg vehicle of Formulation 2 (SEDDS excipients); 4 h post-dose; average; read-out: BHV-3500 Concentration in Dog Plasma
OBSERVATION_TYPE: concentration at 4 h (ng/mL)
Form entry: value (ng/mL) — number only.

Recorded concentration at 4 h (compound Cc1cc(C[C@@H](NC(=O)N2CCC(c3cc4ccccc4[nH]c3=O)CC2)C(=O)N2CCN(C3CCN(C)CC3)CC2)cc2cn[nH]c12 ): 7.97

---

ASSAY_TEXT: Single dose oral capsule pharmacokinetics of BHV-3500 in dogs (plasma LC-MS/MS)
Type: in vivo, beagle dogs
EXPERIMENTAL_CONTEXT: female, beagle, dog, plasma, po, 50 mg, Group 4, oral capsule, 50 mg BHV-3500, no vehicle; individual dogs; read-out: Tmax
OBSERVATION_TYPE: Tmax
Output should be the measured figure followed by the unit it is expressed in.

Recorded Tmax (compound Cc1cc(C[C@@H](NC(=O)N2CCC(c3cc4ccccc4[nH]c3=O)CC2)C(=O)N2CCN(C3CCN(C)CC3)CC2)cc2cn[nH]c12 ): 2 h

---

ASSAY_TEXT: Single dose oral capsule pharmacokinetics of BHV-3500 in dogs (plasma LC-MS/MS)
Assay type: in vivo, beagle dogs
EXPERIMENTAL_CONTEXT: female, beagle, dog, plasma, po, 20 mg, Group 2, oral capsule, 20 mg BHV-3500 in 900 mg vehicle of Formulation 2 (SEDDS excipients); individual dogs; read-out: Tmax
OBSERVATION_TYPE: Tmax (h)
Form entry: value (h) — number only.

Recorded Tmax (compound Cc1cc(C[C@@H](NC(=O)N2CCC(c3cc4ccccc4[nH]c3=O)CC2)C(=O)N2CCN(C3CCN(C)CC3)CC2)cc2cn[nH]c12 [BHV-3500] ): 2

All values here come from patent US12622968B2.
